# Target system: human RNase 5 (RN5_Human) (Homo sapiens)
# Sequence (P03950 25-147): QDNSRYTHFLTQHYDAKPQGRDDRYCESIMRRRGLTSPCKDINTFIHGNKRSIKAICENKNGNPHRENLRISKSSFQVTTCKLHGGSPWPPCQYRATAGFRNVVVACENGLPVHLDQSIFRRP
Quantity: Kd (µM)
Numbers only; they are read as µM.

Task item: Recorded Kd for O=c1ccn([C@@H]2O[C@H](CO)[C@@H](OP(=O)(O)O)[C@H]2O)c(=O)[nH]1 , please?
Reply: 1940

* * *

# Target system: human RNase 2 (RN2_Human) (Homo sapiens, UniProt P10153)
# Construct: made in house; host or cells: Escherichia coli
# Sequence (P10153 28-161): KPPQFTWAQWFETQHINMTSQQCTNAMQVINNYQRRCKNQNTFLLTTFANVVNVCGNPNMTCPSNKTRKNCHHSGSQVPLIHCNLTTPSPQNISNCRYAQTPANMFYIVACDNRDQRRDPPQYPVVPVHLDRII
# Procedure summary: NMR chemical shift titration, ligand binding to human RNase 2
Quantity: Kd (µM)
Numbers only; they are read as µM.

Task item: What reported Kd corresponds to O=c1ccn([C@@H]2O[C@H](CO)[C@@H](OP(=O)(O)O)[C@H]2O)c(=O)[nH]1 on human RNase 2 (RN2_Human) (Homo sapiens, UniProt P10153)?
Reply: 456

* * *

# Target system: human RNase 2 (RN2_Human) (Homo sapiens, UniProt P10153)
# Construct: made in house; host or cells: Escherichia coli
# Procedure summary: NMR chemical shift titration, ligand binding to human RNase 2
# Experimental setup: RN2_Human; 298 K, 15 mM sodium acetate pH 5.0; ± standard deviation of the fit; read-out: Kd
Quantity: pKd
Value format note: pKd is -log10 of concentration (mol/L); just state the number.

Task item: Recorded pKd for Nc1ncnc2c1ncn2[C@@H]1O[C@H](COP(=O)(O)O)[C@@H](O)[C@H]1O [5′-AMP] , please?
Reply: 3.27

* * *

# Target system: human RNase 3 (RN3_Human) (Homo sapiens, UniProt P12724)
# Construct: made in house; host or cells: Escherichia coli
# Sequence (P12724 28-160): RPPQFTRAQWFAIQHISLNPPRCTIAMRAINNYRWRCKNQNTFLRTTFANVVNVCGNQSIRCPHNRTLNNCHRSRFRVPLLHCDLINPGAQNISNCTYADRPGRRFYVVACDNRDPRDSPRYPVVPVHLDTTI
# Procedure summary: NMR chemical shift titration, ligand binding to human RNase 3
Quantity: pKd
Value format note: pKd is -log10 of concentration (mol/L); just state the number.

Task item: Recorded pKd for Nc1ncnc2c1ncn2[C@@H]1O[C@H](COP(=O)(O)O)[C@@H](O)[C@H]1O , please?
Reply: 3.52

* * *

# Target system: human RNase 3 (RN3_Human) (Homo sapiens, UniProt P12724)
# Construct: made in house; host or cells: Escherichia coli
# Procedure summary: NMR chemical shift titration, ligand binding to human RNase 3
# Experimental setup: RN3_Human; 298 K, 15 mM sodium acetate pH 5.0; ± standard deviation of the fit; read-out: Kd
Quantity: Kd (µM)
Numbers only; they are read as µM.

Task item: Recorded Kd for O=c1ccn([C@@H]2O[C@H](CO)[C@@H](OP(=O)(O)O)[C@H]2O)c(=O)[nH]1 [3′-UMP] , please?
Reply: 460
